assay: Human HepG2 cell viability assay in 384 well format; assay type: toxicity, cell-based; parameters: dose 125 nL, time 70.5 hour; concentration not given beside the values; conditions: HepG2 cells, read-out: Inhibition
cytotoxicity at 70.5 h reference
Assay Endpoint: cytotoxicity at 70.5 h (%)

Molecule: O=C(NC1(c2cccc(F)c2)CCOCC1)c1ccoc1
Value Reported: -6.8
//
Molecule: CC(C)c1nnc2n1CCN(C(=O)COc1ccc(C(N)=O)cc1)C2
Value Reported: -6.98
//
Molecule: CC(C)CNC(=O)N1C[C@@H]2CCCN[C@@H]2C1
Value Reported: -8.84
//
Molecule: CC(Cn1ccnc1)NC(=O)N(C)Cc1ccc2c(c1)OCO2 (configuration not stated)
Value Reported: 1.49
//
Molecule: Cc1ncsc1CCC(=O)NC1CCN(Cc2cccs2)CC1
Value Reported: -11.5
//
Molecule: CC(=O)N1CCCC(c2ccc(N3CCOCC3)cn2)C1 (configuration not stated)
Value Reported: -5.65
//
Molecule: O=C(Cc1ccsc1)NCC1OCCc2cn(CC3CC3)nc21 (configuration not stated)
Value Reported: -2.21
//
Molecule: CN(C)[C@@H]1CN(C(=O)c2cc3cccc(F)c3[nH]2)C[C@H]1O
Value Reported: -2.67
//
Molecule: Cc1cccc(CN2CCN(c3ncnc4[nH]cnc34)CC2CCO)n1 (configuration not stated)
Value Reported: 9.72
//
Molecule: COCc1nnc(C(=O)N2CCCC(O)C2)o1 (configuration not stated)
Value Reported: -1.1
//
Molecule: CS(=O)(=O)NCC(=O)NC1CCc2nccn2C1 (configuration not stated)
Value Reported: -7.92
//
Molecule: COc1ccc(Oc2ncccc2NC(=O)N2CCOC(C)C2)cc1 (configuration not stated)
Value Reported: -5.19

* * *

experiment: Human HepG2 cell viability assay in 384 well format; type: toxicity, cell-based; parameters: dose 125 nL, time 70.5 hour; concentration not given beside the values; conditions: HepG2 cells, read-out: Inhibition
Assay Endpoint: cytotoxicity at 70.5 h (%)

Compound: Cc1nc(C(=O)N2CCN(S(C)(=O)=O)CC2)c(-c2ccccc2)s1
Value Reported: 9.71
//
Compound: Cc1cc(C)c(CNC(=O)N2CCNC(=O)C2)c(=O)[nH]1
Value Reported: -4.49
//
Compound: Cc1ncc(CNC(=O)Cc2ccsc2)c(C2CCCN2C)n1 (stereo unspecified)
Value Reported: -5.12
//
Compound: COc1ccc(C(NCc2cccc(C#N)c2)C2CC2)cc1 (stereo unspecified)
Value Reported: -2.12
//
Compound: CN(C)CC1CSCCCN1C(=O)c1cccc(C(F)(F)F)c1 (stereo unspecified)
Value Reported: 3.74
//
Compound: CC(=O)N1CCCCC[C@@H]2[C@@H]1[C@H](c1cccc(F)c1)CN2CCC(N)=O
Value Reported: -9.36

* * *

Attribute: cytotoxicity at 70.5 h
test: Human HepG2 cell viability assay in 384 well format; format: toxicity, cell-based; set-up: dose 125 nL, time 70.5 hour; concentration not given beside the values; conditions: HepG2 cells, read-out: Inhibition
Assay Endpoint: cytotoxicity at 70.5 h (%)

Molecule: CN(C)C(=O)N1CCCC2(CCN(c3ccsc3)C2=O)C1 (stereo unspecified)
Assay Endpoint: cytotoxicity at 70.5 h
Value Reported: -6.16

Molecule: Cc1cnc(CN2CCN(C(C)c3nc(C4CC4)no3)CC2)cn1 (stereo unspecified)
Assay Endpoint: cytotoxicity at 70.5 h
Value Reported: -6.13

Molecule: O=C(O)C1c2nc[nH]c2CCN1CC(c1ccccc1)c1ccccc1 (stereo unspecified)
Assay Endpoint: cytotoxicity at 70.5 h
Value Reported: -3.04

Molecule: O=C(NCCNc1cnccn1)NCC1CCS(=O)(=O)C1 (stereo unspecified)
Assay Endpoint: cytotoxicity at 70.5 h
Value Reported: -7.83

Molecule: Cc1nc(CNCC2CCCN(C(=O)OC(C)(C)C)C2)cs1 (stereo unspecified)
Assay Endpoint: cytotoxicity at 70.5 h
Value Reported: 27.5

Molecule: CSCc1cc(F)ccc1CNC(=O)N1CCC[C@@H]1CO
Assay Endpoint: cytotoxicity at 70.5 h
Value Reported: -4.06

* * *

We begin with a simple list: items and their reported cytotoxicity at 70.5 h.
assay: Human HepG2 cell viability assay in 384 well format; assay type: toxicity, cell-based; set-up: dose 125 nL, time 70.5 hour; concentration not given beside the values; conditions: HepG2 cells, read-out: Inhibition
Assay Endpoint: cytotoxicity at 70.5 h (%)

Compound: CC(NCC1CCN(CCO)CC1)c1cccc(Cl)c1 (stereo unspecified)
Value Reported: -2.07
--
Compound: CC(=O)N1CCN(c2cc(-n3cccc3)ncn2)CC1
Value Reported: -7.94
--
Compound: O=C1NCc2ccccc2CC12CCCN(CCCc1ccccc1)C2 (stereo unspecified)
Value Reported: -3.38
--
Compound: O=C(NCCSCc1cccs1)C1CCCN(C(=O)N2CCCC2)C1 (stereo unspecified)
Value Reported: -6.45
--
Compound: Cc1cc(CNCC2CNc3ccnn3C2)no1 (stereo unspecified)
Value Reported: 19.3
--
Compound: COc1cc(S(=O)(=O)N2CCc3ccc(F)cc32)cc(C(=O)O)c1OC
Value Reported: 10.1
--
Compound: CN(C)CCN1C[C@@H]2CN(C(=O)C3CC=CC3)C[C@@H]2C1=O
Value Reported: -10.8
--
Compound: CCNc1nc(C)c(C(=O)N(C)Cc2nc(-c3ccncc3)no2)s1
Value Reported: 1.19
--
Compound: Cc1ccc(-c2nc(CN3CCc4nn(C)c(=O)cc4C3)no2)cc1
Value Reported: -15.2
--
Compound: O=C(O)c1csc(S(=O)(=O)N2CCN(Cc3c(F)cccc3Cl)CC2)c1
Value Reported: -31.1
--
Compound: O=C(NC[C@H]1OC[C@@H](NC2CCOCC2)[C@@H]1O)c1cccs1
Value Reported: -8.14

* * *

This listing pairs compounds with measured cytotoxicity at 70.5 h.
assay: Human HepG2 cell viability assay in 384 well format; type: toxicity, cell-based; design: dose 125 nL, time 70.5 hour; concentration not given beside the values; details: HepG2 cells, read-out: Inhibition

Compound: Cc1c(C2CC(=O)Nc3c2cnn3C(C)(C)C)cnn1C (stereo unspecified)
Measurement Unit: %
cytotoxicity at 70.5 h: -11.8
//
Compound: O=C(c1sccc1-n1cnnn1)N1CCC(Cc2ccccc2)CC1
Measurement Unit: %
cytotoxicity at 70.5 h: -4.62
//
Compound: O=C(CC1COCCN1S(=O)(=O)c1ccccc1)NCc1ccccn1 (stereo unspecified)
Measurement Unit: %
cytotoxicity at 70.5 h: -15.7
//
Compound: COCc1noc(-c2nn(-c3ccc(F)c(F)c3)c3c2CCC3)n1
Measurement Unit: %
cytotoxicity at 70.5 h: 26
//
Compound: COc1ccc(CN)c(OC(F)F)c1
Measurement Unit: %
cytotoxicity at 70.5 h: -10.1
//
Compound: Cc1cnc2c(S(=O)(=O)NCC3CCOC3)cccc2c1 (stereo unspecified)
Measurement Unit: %
cytotoxicity at 70.5 h: -10.2

* * *

experiment: Human HepG2 cell viability assay in 384 well format; type: toxicity, cell-based; parameters: dose 125 nL, time 70.5 hour; concentration not given beside the values; settings: HepG2 cells, read-out: Inhibition

Molecule: O=C(NCCc1cc2nc(-c3ccncc3)ccn2n1)C1CCOCC1
cytotoxicity at 70.5 h (%): -5.82
--
Molecule: O=C(N[C@@H]1CN(Cc2ccc3cc[nH]c3c2)C[C@H]1O)c1cnccn1
cytotoxicity at 70.5 h (%): -5.2
--
Molecule: O=C(Nc1nccs1)NC1CCN(Cc2ccccc2)CC1
cytotoxicity at 70.5 h (%): -15.7
--
Molecule: CC(C)CN1C(=O)CC(N2CCN(c3ccc(F)cc3)CC2)C1=O (stereo unspecified)
cytotoxicity at 70.5 h (%): 13.6
--
Molecule: COc1ccc(-c2cc[nH]n2)cc1CNC1CCCC1
cytotoxicity at 70.5 h (%): -7.14
--
Molecule: CO[C@@H]1CC[C@H]2[C@H]1OCCN2S(=O)(=O)C1CC1
cytotoxicity at 70.5 h (%): -9.16

* * *

test: Human HepG2 cell viability assay in 384 well format; format: toxicity, cell-based; parameters: dose 125 nL, time 70.5 hour; concentration not given beside the values; details: HepG2 cells, read-out: Inhibition

Compound: COc1ccc(-c2nc(C#N)c(N(C)C)o2)cc1S(=O)(=O)N(C)C
Measurement Unit: %
cytotoxicity at 70.5 h: -11.8
--
Compound: Cc1ccc(-n2nc(C)cc2N)nn1
Measurement Unit: %
cytotoxicity at 70.5 h: -14.8
--
Compound: CCOc1cc(/C=C/c2ncc(C(=O)O)s2)ccc1O
Measurement Unit: %
cytotoxicity at 70.5 h: 0.103
--
Compound: CC1CN(CC(=O)NCCc2ccccc2)CCN1c1nccs1 (centres undefined)
Measurement Unit: %
cytotoxicity at 70.5 h: -5.41
--
Compound: CC1COC2(CCN(C(=O)c3ncoc3C(C)C)CC2)O1 (centres undefined)
Measurement Unit: %
cytotoxicity at 70.5 h: 11.1
--
Compound: CN(c1cccnc1N1CCCC1)S(=O)(=O)c1cccs1
Measurement Unit: %
cytotoxicity at 70.5 h: 12.7
--
Compound: O=C(NCCn1cccn1)c1ccn(-c2cccc(F)c2)n1
Measurement Unit: %
cytotoxicity at 70.5 h: -11.4
--
Compound: CCCc1nnc(SCc2cc(=O)n3c4c(sc3n2)CCCC4)[nH]1
Measurement Unit: %
cytotoxicity at 70.5 h: -6.9
--
Compound: CC(C)C(=O)N1CCC(NCc2c(C(C)C)nn(C)c2N(C)C)CC1
Measurement Unit: %
cytotoxicity at 70.5 h: -5.89
--
Compound: CCc1cc(=O)n(CC(=O)N2CCCC2)c(-c2cccc(F)c2)n1
Measurement Unit: %
cytotoxicity at 70.5 h: 4.18
--
Compound: CCCc1cncnc1N1CCC(NCc2ccc(O)cc2)CC1
Measurement Unit: %
cytotoxicity at 70.5 h: -2.53
--
Compound: CCC(C)c1csc(NC(=O)Cc2csc(-c3nnc[nH]3)n2)n1 (centres undefined)
Measurement Unit: %
cytotoxicity at 70.5 h: 9.25
--
Compound: COCCN1CCC(c2cncc(N(C)C)n2)CC1
Measurement Unit: %
cytotoxicity at 70.5 h: 16.5
--
Compound: CNC(=O)C1(c2cnccn2)CCCN1C(=O)Cc1ccsc1 (centres undefined)
Measurement Unit: %
cytotoxicity at 70.5 h: -6.75
--
Compound: c1ccc(-c2nc(CN3CCc4c(ncn4C4CC4)C3)cs2)cc1
Measurement Unit: %
cytotoxicity at 70.5 h: 5.22
--
Compound: CCc1ccccc1OC1CN(C(=O)c2ccnc(OC)c2)C1
Measurement Unit: %
cytotoxicity at 70.5 h: 11.1
--
Compound: CC(=O)N1C[C@@H](c2ccsc2)[C@@H]2CN(Cc3ccccc3C)CC[C@@H]21
Measurement Unit: %
cytotoxicity at 70.5 h: 18.9
--
Compound: Cc1cnc2c(S(=O)(=O)NC(=O)C(C)OCC3CC3)cccc2c1 (centres undefined)
Measurement Unit: %
cytotoxicity at 70.5 h: -0.0884
--
Compound: CCc1noc(C(C)N(C)CC(=O)Nc2ccccc2Cl)n1 (centres undefined)
Measurement Unit: %
cytotoxicity at 70.5 h: -89.8
--
Compound: CN1CCN(c2cc(CNC(=O)c3cnccn3)ccn2)CC1
Measurement Unit: %
cytotoxicity at 70.5 h: -3.35
--
Compound: Cc1nccn1-c1cccc(C2CCCN(C3CCCCC3)C2)n1 (centres undefined)
Measurement Unit: %
cytotoxicity at 70.5 h: 2.4
--
Compound: CCN(CC1CCCO1)C(=O)Nc1ccc(F)cc1OC (centres undefined)
Measurement Unit: %
cytotoxicity at 70.5 h: -8.02
--
Compound: CC(C)N[C@@H]1CO[C@H](CNC(=O)Nc2ccccc2)[C@H]1O
Measurement Unit: %
cytotoxicity at 70.5 h: -2.59
--
Compound: Cc1nc(CNC(=O)NC2CCN(c3ncccc3Cl)C2)oc1C (centres undefined)
Measurement Unit: %
cytotoxicity at 70.5 h: 14.8
